- Tested System: UniProtKB Q9GZQ8
- Measurement Description: Fluorescence polarization experiment targeting LC3B (GST-LC3B with FITC-labeled peptide)
- Run Parameters: GST-LC3B 180 nM, FITC-labeled peptide 18 nM, 25° C.
pIC50: −log10 of the molar value.
Entries and their pIC50

Molecule | pIC50
O=C1CC(c2ccccc2)CC(=O)C1=CNCCN1CCN(C(=O)N2C(=O)CCC(N3C(=O)c4ccccc4C3=O)C2=O)CC1 (stereo not drawn) | 4.00 to 4.82
O=C1CCC(N2Cc3c(NC=C4C(=O)CC(c5ccccc5N5CCOCC5)CC4=O)cccc3C2=O)C(=O)N1 (stereo not drawn) | > 5.52

Here's the next entry for you.
Quick check: pIC50 on UniProtKB Q9GZQ8, item CC(C)[C@H](NC(=O)CN1CCN(CCNC=C2C(=O)CC(c3ccccc3)CC2=O)CC1)C(=O)N[C@@H](CCCNC(N)=O)C(=O)Nc1ccc(COC(=O)Nc2cccc3c2CN(C2CCC(=O)NC2=O)C3=O)cc1 (stereo partly drawn) ?
4.00 to 4.82

###

- Tested System: UniProtKB Q9GZQ8
- Measurement Description: Fluorescence polarization experiment targeting LC3B (GST-LC3B with FITC-labeled peptide)
pIC50: −log10 of the molar value.
Entries and their pIC50

# count of solved cases: 5
Compound | pIC50
CCOC(=O)C1C(=O)C(=CNc2cccc3c2CN(C2CCC(=O)NC2=O)C3=O)C(=O)CC1c1cccc2[nH]ccc12 (stereo not drawn) [Compound 25] | > 5.52
O=C1CCC(N2Cc3c(NC=C4C(=O)CCCC4=O)cccc3C2=O)C(=O)N1 (stereo not drawn) [Compound 132] | 3.00 to 4.00
O=C1CCC(N2Cc3c(NC(=O)CN4CCN(CCNC=C5C(=O)CC(c6ccccc6Br)CC5=O)CC4)cccc3C2=O)C(=O)N1 (stereo not drawn) [Compound 157] | > 5.52
CN1C(=O)/C(=C\Nc2cccc3c2CN(C2CCC(=O)NC2=O)C3=O)C(=O)c2ccc(C(F)(F)F)cc21 (stereo not drawn) [Compound 136] | 4.82 to 5.52
CCCNC(=O)C1CC(=O)C(=CNc2cccc3c2CN(C2CCC(=O)NC2=O)C3=O)C(=O)C1 (stereo not drawn) [Compound 114] | 3.00 to 4.00

Here's the next entry for you.
Quick check: pIC50 on UniProtKB Q9GZQ8, item CCOC(=O)C1C(=O)C(=CNc2cccc3c2C(=O)N(C2CCC(=O)NC2=O)C3=O)C(=O)CC1c1cccc2[nH]ccc12 (stereo not drawn) [Compound 26] ?
> 5.52

###

- Tested System: LC3B (Homo sapiens (Human), UniProt Q9GZQ8)
- Measurement Description: Fluorescence polarization experiment targeting LC3B (GST-LC3B with FITC-labeled peptide)
- Run Parameters: GST-LC3B 180 nM, FITC-labeled peptide 18 nM, 25° C.
pIC50: −log10 of the molar value.
Entries and their pIC50

# count of solved cases: 3
Molecule | Property Label | Measurement
O=C1CCC(N2Cc3c(NC=C4C(=O)CC(c5c[nH]c6ccccc56)CC4=O)cccc3C2=O)C(=O)N1 (stereo not shown) [Compound 38] | pIC50 | > 5.52
CC(=O)Nc1ccccc1C1CC(=O)C(=CNc2cccc3c2CN(C2CCC(=O)NC2=O)C3=O)C(=O)C1 (stereo not shown) [Compound 156] | pIC50 | > 5.52
O=C1CCC(N2Cc3c(NC=C4C(=O)CC(c5ccc(C(F)(F)F)cc5)CC4=O)cccc3C2=O)C(=O)N1 (stereo not shown) [Compound 21] | pIC50 | > 5.52

// returns reported pIC50 for input O=C1CCC(N2C(=O)c3cccc(NC=C4C(=O)CC(c5cccc6[nH]ccc56)CC4=O)c3C2=O)C(=O)N1 (stereo not shown) [Compound 5]
> 5.52

// returns reported pIC50 for input O=C1CCC(N2Cc3c(NC=C4C(=O)CC(c5cccc6[nH]cc(C(F)(F)F)c56)CC4=O)cccc3C2=O)C(=O)N1 (stereo not shown) [Compound 15]
> 5.52

// returns reported pIC50 for input CC(C)[C@H](NC(=O)CCC(=O)OCCN1CCN(CCNC=C2C(=O)CC(c3ccccc3)CC2=O)CC1)C(=O)N[C@@H](CCCNC(N)=O)C(=O)Nc1ccc(COC(=O)Nc2cccc3c2CN(C2CCC(=O)NC2=O)C3=O)cc1 (stereo partly shown) [Compound 89]
4.00 to 4.82

// returns reported pIC50 for input O=C1CCC(N2C(=O)c3cccc(NC=C4C(=O)CC(c5cccc6[nH]cc(Cl)c56)CC4=O)c3C2=O)C(=O)N1 (stereo not shown) [Compound 12]
> 5.52

// returns reported pIC50 for input O=C1CCC(N2Cc3c(NC=C4C(=O)CC(c5c(F)cccc5Cl)CC4=O)cccc3C2=O)C(=O)N1 (stereo not shown) [Compound 147]
> 5.52

// returns reported pIC50 for input O=C1CCC(N2C(=O)c3cccc(NC(=O)[C@@H]4C[C@H](O)CN4CCNC=C4C(=O)CC(c5ccccc5)CC4=O)c3C2=O)C(=O)N1 (stereo partly shown) [Compound 64]
4.00 to 4.82

// returns reported pIC50 for input O=C1CCC(N2Cc3c(NC(=C4C(=O)CC(c5ccccc5)CC4=O)c4ccccc4)cccc3C2=O)C(=O)N1 (stereo not shown) [Compound 75]
3.00 to 4.00

// returns reported pIC50 for input CC(C)[C@H](NC=C1C(=O)CC(c2ccccc2)CC1=O)C(=O)N[C@@H](CCCNC(N)=O)C(=O)Nc1cccc2c1CN(C1CCC(=O)NC1=O)C2=O (stereo partly shown) [Compound 59]
3.00 to 4.00

// returns reported pIC50 for input CC(Nc1cccc2c1C(=O)N(C1CCC(=O)NC1=O)C2=O)=C1C(=O)CC(c2ccccc2)CC1=O (stereo not shown) [Compound 76]
3.00 to 4.00

// returns reported pIC50 for input O=C1CCC(N2Cc3c(NC=C4C(=O)CC(c5cccc(Cl)c5F)CC4=O)cccc3C2=O)C(=O)N1 (stereo not shown) [Compound 146]
> 5.52

// returns reported pIC50 for input O=C1CCC(N2Cc3c(NC=C4C(=O)CC(c5c(Br)ccc6[nH]cc(C(F)(F)F)c56)CC4=O)cccc3C2=O)C(=O)N1 (stereo not shown) [Compound 16]
> 5.52

// returns reported pIC50 for input O=C1CCC(N2Cc3c(NC(=O)CN4CCN(CCNC=C5C(=O)CC(c6c(Cl)ccc(C(F)(F)F)c6Cl)CC5=O)CC4)cccc3C2=O)C(=O)N1 (stereo not shown) [Compound 158]
> 5.52

###

Entries and their pIC50
- Tested System: LC3B (Homo sapiens (Human), UniProt Q9GZQ8)
- Measurement Description: Fluorescence polarization experiment targeting LC3B (GST-LC3B with FITC-labeled peptide)
- Run Parameters: GST-LC3B 180 nM, FITC-labeled peptide 18 nM, 25° C.
pIC50: −log10 of the molar value.

# count of solved cases: 2
Compound | Measurement
C[C@@H](CC(=O)Nc1cccc2c1CN(C1CCC(=O)NC1=O)C2=O)NC=C1C(=O)CC(c2ccccc2)CC1=O (stereo partly shown) [Compound 44] | 3.00 to 4.00
O=C1CCC(N2Cc3c(NC=C4C(=O)CC(c5c[nH]c6cccc(Cl)c56)CC4=O)cccc3C2=O)C(=O)N1 (stereo not shown) [Compound 150] | > 5.52

// returns reported pIC50 for input O=C1CCC(N2Cc3c(NC=C4C(=O)CC(c5c(F)c(Cl)cc(Cl)c5Cl)CC4=O)cccc3C2=O)C(=O)N1 (stereo not shown) [Compound 154]
> 5.52

// returns reported pIC50 for input O=C1CCC(N2Cc3c(NC=C4C(=O)CC(c5cccc6[nH]ccc56)CC4=O)cccc3C2=O)C(=O)N1 (stereo not shown) [Compound 3]
> 5.52
